Hi there, I'd appreciate the recorded MFI Ratio for every entry that follows.
- ASSAY SYSTEM: SARS-CoV-2 membrane protein on expressing cells (SARS-CoV-2, UniProt P0DTC5 1-222)
Answers are plain numbers.

Reference set, count: 3
INSERT INTO results (binder, quantitative_result) VALUES
  ('10-56 (VHH) VHH: EVQLVESGGGLVQPGGSLRLSCAASGHTFRNYGMGWFRQAPGKEREFVAAITSSGSTNYADSVKGRFTISADNSKNTAYLQMNSLKPEDTAVYYCATVPPPRRFLEWLPRRLTYTWGQGTLVTVSS', 1.39),
  ('10-13 (VHH) VHH: EVQLVESGGGLVQPGGSLRLSCAASGGLTFSSNTMGWFRQAPGKEREFVASISSSGRTSYADSVKGRFTISADNSKNTAYLQMNSLKPEDTAVYYCARRVRRLWFRSYFDLWGQGTLVTVSS', 8.83),
  ('9-2 (VHH) VHH: EVQLVESGGGLVQPGGSLRLSCAASGSFSIAAMGWFRQAPGKEREFVATINYSGGGTYYADSVKGRFTISADNSKNTAYLQMNSLKPEDTAVYYCAAVNTFDESAYAAFACYDVVWGQGTLVTVSS', 1.3);

# input for lookup
Challenge: Query: MFI Ratio; subject: 10-18 (VHH) VHH: EVQLVESGGGLVQPGGSLRLSCAASGRMYNSYSMGWFRQAPGKEREFVARISPGGTFYADSVKGRFTISADNSKNTAYLQMNSLKPEDTAVYYCTTSARSGWFWRYFDSWGQGTLVTVSS
Response given: 8.06
